B1: GNB5 (parent)
chain: DINSVRYYPSGDAFASGSDDATCR

# Variants of: B1
# PROTOCOL_DETAILS: protein stability index of a GFP-peptide fusion (GPS, HEK-293T) (PSI 1-6); higher = more stable;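 note: lentivirally expressed fusions sorted by FACS into six bins by GFP to DsRed ratio, PSI derived from sequencing read proportions per bin multiplied by bin number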
# TEST_CONTEXT: c terminus: a fixed tail appended
METRIC_NAME: protein stability index

Input: Which protein stability index is listed for I2C ?
Output: 4.32

Input: Can you look up the measured protein stability index of A13Y for me?
Output: 3.22

Input: Any idea what protein stability index was measured for D1M ?
Output: 3.81

Input: Can you look up the measured protein stability index of C23D for me?
Output: 4.48

Input: Return reported protein stability index; argument: V5E
Output: 4.61

Input: What does the data say about its protein stability index? Entry: V5L
Output: 3.49

Input: Record request: protein stability index value, item Y8F
Output: 3.82

Input: State the recorded protein stability index for this entry: V5F
Output: 3.74

Input: Would you mind telling me what protein stability index value was observed for C23L ?
Output: 3.95

Input: Record request: protein stability index value, item R6K
Output: 4.34

Input: Which protein stability index is reported for this variant? A13M
Output: 3.69

Input: Name the reported protein stability index value associated with the variant R24S
Output: 4.12
